# ASSAYED SYSTEM: ataxin-3 fragment containing all three UIM sequences (residues 194-361, UIM_123) (human, UniProt P54252 194-361)
# Sequence (P54252 194-361): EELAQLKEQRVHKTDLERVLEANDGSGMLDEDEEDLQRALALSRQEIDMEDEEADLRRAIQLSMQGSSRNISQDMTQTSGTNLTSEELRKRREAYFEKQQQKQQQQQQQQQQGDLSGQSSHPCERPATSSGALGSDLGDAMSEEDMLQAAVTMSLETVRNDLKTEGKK
# METHOD NOTES: NMR titration
MEASURED QUANTITY: Kd (µM)
One number for each entry, in µM.

Quick one: Kd of human parkin ubiquitin-like domain (residues 1-77) (domain or fragment, UniProt O60260 1-77, looked up) MIVFVRFNSSHGFPVEVDSDTSIFQLKEVVAKRQGVPADQLRVIFAGKELRNDWTVQNCDLDQQSIVHIVQRPWRKG ?
236
